tested on: NCI-H522 lung; experiment: NCI tumour cell line growth inhibition, 48 h
PROPERTY_MEASURED: TGI

[[record]]
molecule = "CN(c1ccccc1)C(c1ccccc1)C(O)c1ccccc1 (stereo unspecified)"
assay_system = "NCI-H522 lung"
property_measured = "TGI"
result = "36.9 µM"

[[record]]
molecule = "O=c1cc(-c2cccc(OC(F)(F)F)c2)[nH]c2cc3c(cc12)OCO3"
assay_system = "NCI-H522 lung"
property_measured = "TGI"
result = "> 100 µM"

[[record]]
molecule = "N=C(N)CCCCCCCCC(=N)N"
assay_system = "NCI-H522 lung"
property_measured = "TGI"
result = "> 100 µM"

[[record]]
molecule = "Cc1cc(S(=O)(=O)Nc2nnc(-c3ccccc3)c(-c3ccccc3)n2)c(SCc2ccccc2)cc1Cl"
assay_system = "NCI-H522 lung"
property_measured = "TGI"
result = "53.7 µM"

[[record]]
molecule = "O=S1(=O)C[C@@H](O)[C@H](O)CS1"
assay_system = "NCI-H522 lung"
property_measured = "TGI"
result = "> 100 µM"

[[record]]
molecule = "OCCCCC#Cc1ccccc1C#Cc1ccccc1C(F)(F)F"
assay_system = "NCI-H522 lung"
property_measured = "TGI"
result = "22.7 µM"

[[record]]
molecule = "O=C(Nc1ccc(Cl)cc1)c1cc2ccccc2cc1O"
assay_system = "NCI-H522 lung"
property_measured = "TGI"
result = "6.88 µM"

[[record]]
molecule = "CC(=O)OCC1OC(n2c(=O)n(-c3ccccc3)c(=O)c3ccccc32)C(OC(C)=O)C(OC(C)=O)C1OC(C)=O (stereo unspecified)"
assay_system = "NCI-H522 lung"
property_measured = "TGI"
result = "> 100 µM"

[[record]]
molecule = "COC(=O)C(Nc1ccc(OC)cc1)c1ccccc1 (stereo unspecified)"
assay_system = "NCI-H522 lung"
property_measured = "TGI"
result = "> 100 µM"

[[record]]
molecule = "CC1(C)OCC(C2OC(N3O[C@H](CI)C[C@@H]3c3ccccc3)C3OC(C)(C)OC23)O1 (stereo partly specified)"
assay_system = "NCI-H522 lung"
property_measured = "TGI"
result = "> 100 µM"

[[record]]
molecule = "CC1NC(/C(=C/c2ccccc2O)NC(=O)c2ccccc2)OC1=O (stereo unspecified)"
assay_system = "NCI-H522 lung"
property_measured = "TGI"
result = "> 50 µM"

